subject.of.test: T1, biotinylated CD32bECDHis (human, UniProt P31994 43-223, limits assumed, biotinylated (sites not given))
T1 sequence (looked up): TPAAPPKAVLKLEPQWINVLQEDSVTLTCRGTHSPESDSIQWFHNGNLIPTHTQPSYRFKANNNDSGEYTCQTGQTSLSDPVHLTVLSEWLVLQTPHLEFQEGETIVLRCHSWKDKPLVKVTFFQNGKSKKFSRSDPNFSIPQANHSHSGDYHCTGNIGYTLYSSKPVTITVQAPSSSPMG
assay.method.text: competition ELISA, competitor 2B6
Experimental: ELISA wells were coated overnight at 4° C. with anti-CD32b HuMabs serially diluted in PBS. The ELISA wells were washed with PBS, blocked for one hour at room temperature with 2% (v/v) chicken serum (Gibco, Paisley, Scotland) in PBS and washed again with PBS. Subsequently, the immobilized antibodies were incubated with biotinylated CD32bECDHis serially diluted in PBSTC. […]
assay.readout: % residual binding (%)
State the answer as a number, implicitly in %.

binder	units.of.measure	measured.result
Antibody 053 (antibody, human IgG1, V domains shown, Human antibody; also called HuMab 053) VH: QVQLVESGGGVVQPGRSLRLSCAVSGFTFRSYGMHWVRQAPGKGLEWVAVIWYDGSIKYYADSVKGRFTISRDNSKNTLYLQMNSLRAEDTAVYFCAREGGRDAFDIWGQGTMVTVSS VL: AVQLTQSPSSLSASVGDRVTITCRASQGISSALAWYQQKPGKAPKLLIYDASSLESGVPSRFSGSGSGTDFTLTISSLQPEDFATYCCQQFNSYPHTFGGGTKVEIKR	%	195

As a next step, examine the binder that follows.
Lookup: Which % residual binding is listed for Antibody 026 (antibody, V domains shown, Human antibody; also called HuMab 026) VH: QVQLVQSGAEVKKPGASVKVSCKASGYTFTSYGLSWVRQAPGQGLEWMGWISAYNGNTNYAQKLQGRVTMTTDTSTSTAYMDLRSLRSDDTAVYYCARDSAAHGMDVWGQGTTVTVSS VL: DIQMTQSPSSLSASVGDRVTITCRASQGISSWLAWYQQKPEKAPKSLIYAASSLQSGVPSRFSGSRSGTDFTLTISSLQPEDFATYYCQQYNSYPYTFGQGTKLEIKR ?
Found: 146
